System: SK-MEL-28 melanoma
protocol details: NCI tumour cell line growth inhibition, 48 h
Known TGI of a selection of molecules
parameter measured: TGI

| molecule | parameter measured | observed value |
| --- | --- | --- |
| COc1ccc2ccc3oc(=O)c(C)cc3c2c1 | TGI | > 100 µM |
| O=c1c(F)cn2c(=O)n1CCCCCCCn1c(=O)c(F)cn(c1=O)CCCCCCC2 | TGI | 22.2 µM |
| CCN=c1sc2c(n1NC(=O)c1cc3ccc1CCc1ccc(cc1)CC3)C(=O)c1ccccc1C2=O | TGI | 1.18 µM |
| N#CNC(N)=NCc1ccccc1 | TGI | > 100 µM |
| Cc1c(C(=N)C(C#N)C#N)c(=N)oc2c1ccc1ccccc12 | TGI | 60.8 µM |
| Cc1nc(N)c(N2CCN(C#N)CC2)c(=O)[nH]1 | TGI | > 100 µM |
| Nc1ncnc2c1N=C(c1ccc3c(c1)OCO3)CC(c1ccc(Cl)cc1)N2 (configuration not stated) | TGI | > 100 µM |
| CC(=O)Nc1nc(Cl)cc(NCC2(CO)CCC2)n1 | TGI | > 100 µM |
| CN(C)CCCC1(c2ccc(F)cc2)OCc2cc(-c3cccc4[nH]ccc34)ccc21 (configuration not stated) | TGI | 3.27 µM |
| O=[N+]([O-])c1ccc(C[P+]2(c3ccccc3)CCCCC2)cc1 | TGI | > 100 µM |
| CC(=O)NNc1nc(C)c(C(=O)NNC(=O)C(=O)Nc2ccc([N+](=O)[O-])cc2[N+](=O)[O-])s1 | TGI | > 100 µM |
| CCOC(=O)CSc1nc(N)c2c(-c3ccccc3)c3c(nc2n1)CCCC3 | TGI | > 100 µM |

---

Tested on: NCI-H522 lung
protocol details: NCI tumour cell line growth inhibition, 48 h
Known TGI of a selection of molecules

| smiles code | TGI |
| --- | --- |
| Clc1cccc(-c2sc(-c3cccs3)cc2Cc2cccs2)c1 | > 10 µM |
| CN1CSC(=S)N(c2cccc(C(F)(F)F)c2)C1 | 30.8 µM |
| CC(C)(CO)CNC(=O)c1ccc2[nH]c(O)c(N=Nc3ccc(S(N)(=O)=O)cc3)c2c1 | > 25 µM |

---

Tested on: KM12 colon
protocol details: NCI tumour cell line growth inhibition, 48 h
parameter measured: log10(TGI) (log10 of the value in µM)

| compound | parameter measured | observed value |
| --- | --- | --- |
| COC(=O)/C=C(/C(=O)OC)C1(C)c2cc(C(=O)OC)c(C(=O)OC)c(N)c2C(=N)N1c1ccccc1 (configuration not stated) | log10(TGI) | 1.52 |
| COc1ccc2sc3c(NCCCN)nc4ccccc4c3c(=O)c2c1 | log10(TGI) | 0.53 |
| COCC([C@@H](O)C(O)C(=O)NCC[C@@H](C)c1nc(/C=C/CC2OC3(C[C@H](O)C2C)OC(C(C[C@H](O)C(C)[C@H](O)C(C)/C=C(C)/C(C)=C/C=C/C(C)=C/C#N)OC)[C@@H](OP(=O)(O)O)C3(C)C)co1)N(C)C (some centres not stated) | log10(TGI) | -3.48 |
| CNC(=O)c1ncccc1Nc1nc(Nc2cc3c(cc2OC)CCCN3C(=O)CN(C)C)nc2[nH]ccc12 | log10(TGI) | 0.48 |
| COc1cccc(C2c3cc4c(cc3OC(O)C2C)OCO4)c1OC (configuration not stated) | log10(TGI) | 1.53 |
| CCCCCOc1ccc(/C=N/Nc2cc(C)nc3ccc(Cl)cc23)cc1 | log10(TGI) | 0.53 |
| c1ccc(-c2c(-c3ccccc3)[n+](Cc3ccc4ccccc4c3)c(-c3ccc(-c4nc5ccccc5s4)cc3)n2Cc2ccc3ccccc3c2)cc1 | log10(TGI) | -0.47 |
| COC(=O)OC1C(O[C@H]2C[C@H]3[C@@H]4CC=C5C[C@@H](O)CC[C@]5(C)[C@H]4CC[C@]3(C)[C@H]2[C@H](C)C(=O)CCC(C)C)OCC(O)C1OC1OCC(O)C(O)C1OC(=O)c1ccc(OC)cc1 (some centres not stated) | log10(TGI) | 0.99 |
| O=c1oc2ccc3ccccc3c2cc1-c1cn2ccsc2n1 | log10(TGI) | 1.82 |
| O=C(CCc1cc(O)cc(O)c1)NCCc1cc(OCc2ccccc2)cc(OCc2ccccc2)c1 | log10(TGI) | 1.45 |
| CCCCCCN(CCCCCC)C(=S)N/N=C(\C)c1ccccn1 | log10(TGI) | 0.44 |

Recorded values, source PubChem BioAssay (NCI).
